As shown below, each of these molecules has a reported log10(Ki) value.
molecular target: human GABAA α2β2γ1 receptor (Homo sapiens (Human), UniProt P47869+Q8N1C3); assay: Radioligand binding assay for γ1-containing GABAA subtypes, [3H]RO7239181 competition (α2β2γ1); details: Ki h-GABAA α2β2γ1, displacement of [3H]RO7239181, membranes of HEK293F cells expressing human receptors, means of two determinations
Heads up: the numbers are on a log10 scale; they represent Ki in nM.

**Q:** Bench note: what log10(Ki) did C[C@@H]1N=C(c2ncccc2F)c2c(ccc(C(F)(F)F)c2Cl)-n2nc(C(=O)N3CC(C(F)F)C3)nc21 show?
**A:** 1.60

**Q:** Bench note: what log10(Ki) did C[C@@H]1N=C(c2c(F)cccc2F)c2c(ccc(C(F)(F)F)c2Cl)-n2nc(C(=O)N3CCC3)nc21 show?
**A:** 0.93

**Q:** Bench note: what log10(Ki) did Cc1nnc(-c2nc3n(n2)-c2ccc(C(F)(F)F)c(Cl)c2C(c2ncccc2F)=N[C@H]3C)o1 show?
**A:** 1.87

**Q:** Bench note: what log10(Ki) did C[C@@H]1N=C(c2ncccc2F)c2c(ccc(Cl)c2Cl)-n2nc(C(=O)N3CC(OC(F)F)C3)nc21 show?
**A:** 1.34

**Q:** Bench note: what log10(Ki) did [2H]C([2H])([2H])NC(=O)c1nc2n(n1)-c1ccc(Cl)c(Cl)c1C(c1c(F)cccc1F)=NC2 show?
**A:** 0.78

**Q:** Bench note: what log10(Ki) did C[C@@H]1N=C(c2c(F)cccc2F)c2c(ccc(C(F)(F)F)c2Cl)-n2nc(NC(=O)N3C4COCC3C4)nc21 (single isomer, unassigned) show?
**A:** 1.56

**Q:** Bench note: what log10(Ki) did C[C@H](O)CNC(=O)c1cn2c(n1)[C@H](C)N=C(c1ncccc1F)c1c-2ccc(C(F)(F)F)c1Cl show?
**A:** 1.69
